The reported measurements were obtained from BindingDB's records for doi:10.1021/jm101104z.

- target_desc: 17beta-hydroxysteroid dehydrogenase type 1 (Homo sapiens)
- assay_procedure: Inhibition of 17beta-HSD1
readout_label: IC50

COc1cc(-c2nc3sc4c(O)cccc4c3c(=O)n2Cc2ccccc2)c(Br)c(OC)c1OC : 5 nM

====

Quick reference for pIC50 among some compounds
- target_desc: 17beta-hydroxysteroid dehydrogenase type 1 (Homo sapiens)
- assay_procedure: Displacement of [3H]estrone human recombinant 17beta-HSD1 expressed in Escherichia coli BL21 (DE3)-RIL by scintillation counting in presence of bacterial homogenate
pIC50: −log10 of the molar value.
readout_label: pIC50

CC(=O)c1cc2ccc(-c3ccc(C)cc3)cc2oc1=O : 5.91
CC(=O)c1cc2ccc(-c3ccc(O)cc3)cc2oc1=O : 6.57
COc1ccc(-c2ccc3cc(C(C)=O)c(=O)oc3c2)cc1 : 5.95
CC(=O)c1cc2ccc(OS(=O)(=O)C(F)(F)F)cc2oc1=O : 6.44

====

- target_desc: 17beta-hydroxysteroid dehydrogenase type 1 (Homo sapiens)
- assay_procedure: Displacement of [3H]estrone human recombinant 17beta-HSD1 expressed in Escherichia coli BL21 (DE3)-RIL by competitive inhibition assay in presence of bacterial homogenate
pKi: −log10 of the molar value.
Overview of recorded pKi for various molecules
readout_label: pKi

CC(=O)c1cc2ccc(-c3ccc(C)cc3)cc2oc1=O [3-Acetyl-7-para-tolyl-2H-chromen-2-one] : 6.23
CC(=O)c1cc2ccc(OS(=O)(=O)C(F)(F)F)cc2oc1=O : 6.76
COc1ccc(-c2ccc3cc(C(C)=O)c(=O)oc3c2)cc1 : 6.23
CC(=O)c1cc2ccc(-c3ccc(O)cc3)cc2oc1=O : 6.84
